test.protocol: qHTS of pediatric cancer cell lines to identify multiple opportunities for drug repurposing: Primary screen for BT-37 cells (AID 1347094)
recorded.conditions: BT-37 viability, CellTiter-Glo luminescence, 48 h; series mostly up to 57.3 µM
Results filed as inconclusive are left out. Calls of active or inactive are those of the source. The call rests on the fitted dose curve; in most records, active means well fitted cell-killing curve with a large enough effect; inconclusive means small, poorly fitted or top-dose-only effect; inactive means flat fitted curve, though single readings scatter.
Assign a class; possible classes are active, inactive

# example entries with known answers
CCOC(=O)c1c(C)n(C)c2ccc(O)cc12	inactive
O=C(O)CCNC(=O)c1ccc(N=Nc2ccc(O)c(C(=O)O)c2)cc1	inactive
CC(S)C(=O)NCC(=O)O (stereo unspecified)	inactive
O=C(O)c1cc(=O)c2c(OCC(O)COc3cccc4oc(C(=O)O)cc(=O)c34)cccc2o1	inactive
Cc1ncc([N+](=O)[O-])n1CC(C)O (stereo unspecified)	inactive
Clc1ccc2c(N3CCN(CCCN4CCN(c5ccnc6cc(Cl)ccc56)CC4)CC3)ccnc2c1	inactive

Moving on to the next molecule.
How did this test come out for `N=C(N)c1ccc2cc(OC(=O)c3ccc(N=C(N)N)cc3)ccc2c1` ?
inactive
